test system: Influenza B (B/Lee/40); test: microbe, parasite or virus in culture; assay type: cell-based; conditions: read-out: IC50
Endpoint: IC50 (µM)

CC(=O)O[C@H]1C[C@H]([C@H](C)CC/C=C(\C)C(=O)O)[C@@]2(C)CC=C3C(=CC[C@H]4C(C)(C)C(=O)CC[C@]34C)[C@]12C : 190

====

system: MDCK cells (Madin-Darby Canine Kidney cells)
Endpoint: CC50 (µM)

CC(=O)O[C@H]1C[C@H]([C@H](C)CC/C=C(\C)C(=O)O)[C@@]2(C)CC=C3C(=CC[C@H]4C(C)(C)C(=O)CC[C@]34C)[C@]12C : 41.1

====

assay: in vitro; conditions: dog
Endpoint: CC50 (µM)

C/C(=C\CC[C@@H](C)[C@H]1C[C@H](O)[C@@]2(C)C3=CC[C@H]4C(C)(C)C(=O)CC[C@]4(C)C3=CC[C@]12C)C(=O)O : 299

====

target: NA (H1N1,09) (Influenza A virus); experiment: biochemical; conditions: 200 μM of each compound; n = 3, means ± standard deviation; read-out: Inhibition rate (%) NA(H1N1,09)
Where inhibition at 200 µM equals or exceeds 30%, the correct label is Criterion met; where it does not, the label is Criterion not met.

C/C(=C\CC[C@@H](C)[C@H]1CC[C@@]2(C)C3=CC[C@H]4C(C)(C)C(=O)CC[C@]4(C)C3=CC[C@]12C)CO [Compound 25, Ganoderol A] : Criterion met
C[C@H](CC(=O)C[C@@H](C)[C@H]1C[C@H](O)[C@@]2(C)C3=C(C(=O)C[C@]12C)[C@@]1(C)CC[C@H](O)C(C)(C)[C@@H]1C[C@@H]3O)C(=O)O [Compound 9, Ganoderic acid C2] : Criterion met
C/C(=C\[C@@H](O)C[C@@H](C)[C@H]1CC(=O)[C@@]2(C)C3=C(C(=O)C[C@]12C)[C@@]1(C)CCC(=O)C(C)(C)[C@@H]1C[C@@H]3O)C(=O)O [Compound 23, Ganoderic acid LM2] : Criterion met
C/C(=C\CC[C@@H](C)[C@H]1CC[C@@]2(C)C3=C(CC[C@]12C)[C@@]1(C)CCC(=O)C(C)(C)[C@@H]1CC3=O)C(=O)O [Compound 20, Ganoderic acid DM] : Criterion met
CC(CC(=O)C[C@@H](C)[C@H]1C[C@H](O)[C@@]2(C)C3=C(C(=O)C[C@]12C)[C@@]1(C)CCC(=O)C(C)(C)[C@@H]1CC3)C(=O)O (stereo partly shown) [Compound 21, Ganolucidic acid A] : Criterion not met
CC(CC(=O)C[C@@H](C)[C@H]1CC(=O)[C@@]2(C)C3=C(C(=O)C[C@]12C)[C@@]1(C)CC[C@H](O)C(C)(C)[C@@H]1C[C@@H]3O)C(=O)O (stereo partly shown) [Compound 14, Ganoderic acid B] : Criterion not met
C/C(C=O)=C\CC[C@@H](C)[C@H]1CC[C@@]2(C)C3=C(CC[C@]12C)[C@@]1(C)CCC(=O)C(C)(C)[C@@H]1CC3=O [Compound 31, Lucialdehyde B] : Criterion met
CC(CC(=O)C[C@@H](C)[C@H]1CC(=O)[C@@]2(C)C3=C(C(=O)C[C@]12C)[C@@]1(C)CC[C@H](O)C(C)(C)[C@@H]1CC3=O)C(=O)O (stereo partly shown) [Compound 10, Ganoderic acid AM1] : Criterion not met
C/C(=C/CC[C@@H](C)[C@H]1CC[C@@]2(C)C3=CC[C@H]4C(C)(C)C(=O)CC[C@]4(C)C3=CC[C@]12C)C(=O)O [Compound 5, Ganoderic acid S] : Criterion met
C/C(=C\C(=O)CC(C)C(=O)O)[C@H]1C[C@H](O)[C@@]2(C)C3=C(C(=O)C[C@]12C)[C@@]1(C)CCC(=O)C(C)(C)[C@@H]1C[C@@H]3O (stereo partly shown) [Compound 8, Ganoderenic acid A] : Criterion met
